Test system: SK-MEL-28 melanoma
experiment-notes: NCI tumour cell line growth inhibition, 48 h
Each entry below carries its reported GI50.

Check out these entries, answers already filled in.
>  <compound>
Cc1cnc(C(=O)NNc2nc3sc4c(c3c(=O)[nH]2)C(C)CCC4)cn1 (centres undefined)

>  <GI50>
1370 nM

$$$$
>  <compound>
COc1ccc(-c2nc3ccc(Cc4ccc5nc(-c6ccc(OC)cc6)[nH]c5c4)cc3[nH]2)cc1

>  <GI50>
252 nM

$$$$
>  <compound>
CCCCCCCCCCCC[C@@H](O)[C@H]1CC[C@H]([C@H](O)CC[C@H](O)[C@@H]2CC[C@@H](CCCCCCCC3=C[C@H](C)OC3=O)O2)O1

>  <GI50>
3370 nM

$$$$
>  <compound>
COc1ccccc1CNCCN1C(=O)c2ccc3c4c(ccc(c24)C1=O)C(=O)N(CCNCc1ccccc1OC)C3=O

>  <GI50>
1460 nM

$$$$
>  <compound>
Cc1ccc(NC(=O)c2cc(S(=O)(=O)Nc3nnc(-c4ccccc4)c(-c4ccccc4)n3)c(SCc3ccccc3)cc2Cl)cc1

>  <GI50>
29500 nM

$$$$
>  <compound>
COc1cc(/C=C/c2cc(/C=C/c3ccc(O)c(OC)c3)n(C(=O)c3ccccc3Br)n2)ccc1O

>  <GI50>
2570 nM

$$$$

Q: Consider the compound shown here: CNCc1ccc(-c2cc(-c3nc(-c4ccc(S(=O)(=O)C(C)C)cc4)cnc3N)on2)cc1 What is its recorded GI50?
Result: 1720 nM

Q: Then this compound: COCCOC1=C(Cl)C(=O)c2ccccc2C1=O
Result: 3220 nM

Q: Then this compound: C#Cc1ccc(-n2c(/C=C/c3ccc(O)cc3)nc3ncccc3c2=O)cc1
Result: 5970 nM
